test system: EfPiwi piRISC loaded with piRNA #1 (26 nt); assay: pre-steady-state target cleavage rate (min^-1); auxiliary factor: 500 nM Ephydatia muelleri Gtsf1; guide: piRNA #1 5'p-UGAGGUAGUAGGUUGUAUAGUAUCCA; MIWI and MILI are mouse PIWI proteins and EfPiwi is from a freshwater sponge; tags in brackets are library labels; higher = faster piRNA-guided slicing of the target
# maps each entry to its pre-steady-state target cleavage rate
outcome_measure: pre-steady-state target cleavage rate

> print(dat)
                               sequence.data                        outcome.measure  value.modifier  result.number
 1           GGAGACGUAUACUAUACAACCUACUACCUCA  pre-steady-state target cleavage rate               =         0.0356
 2            GGAGUGGAUACUAAACAUCCUACUACCUCA  pre-steady-state target cleavage rate               =         0.0059
 3            GGAGAGGUUACUAUACAACCUACUACGUCA  pre-steady-state target cleavage rate               =        0.00435
 4            GGAGACCAAACUAUACAACCAACUACCUCA  pre-steady-state target cleavage rate               =        0.00588
 5           GGAGACCUAUCUAGUACAACCUACUACCUCA  pre-steady-state target cleavage rate               =        0.00434
 6           GGAGACCUAACUAUACAACCUACUACCUGCA  pre-steady-state target cleavage rate               =         0.0711
 7            GGAGACCUUACUAUACAACCUAGUUCCUCA  pre-steady-state target cleavage rate               =        0.00334
 8            GGAGACCUUAGAAUACAACCUACUACCUCA  pre-steady-state target cleavage rate               =        0.00613
 9           GGAGUGGAUACUAUACAAGCCUACUACCUCA  pre-steady-state target cleavage rate               =         0.0104
10            GGAGACGAUACUAUACGACCUACUACCUCA  pre-steady-state target cleavage rate               =         0.0807
11            GGAGUGCAUACUAUACAACCAACUACCUCA  pre-steady-state target cleavage rate               =        0.00484
12            GGAGACCAUACUAUAUAACCUACUACCUCA  pre-steady-state target cleavage rate               =        0.00757
13           GGAGACCUAUCUUAUACAACCUACUACCUCA  pre-steady-state target cleavage rate               =         0.0118
14            GGAGUGGAUACUAUACUAGCUACUACCUCA  pre-steady-state target cleavage rate               =         0.0081
15            GGAGUGGAUACUAUACAACCUACUAGGUCA  pre-steady-state target cleavage rate               =        0.00356
16            GGAGACGAUACUAUACAACCUACUACCACA  pre-steady-state target cleavage rate               =        0.00487
17            GGAGUGGAUACUAUACAACCUACUUCCUCA  pre-steady-state target cleavage rate               =        0.00544
18            GGAGACCAUACUAUACAACCUACUACCUGA  pre-steady-state target cleavage rate               =        0.00567
19            GGAGUGGAUACUAUCCAACCUACUACCUCA  pre-steady-state target cleavage rate               =         0.0097
20           GGAGUGGAUACUUAUACAACCUACUACCUCA  pre-steady-state target cleavage rate               =          0.093
21           GGAGUAGGAUACUAUACAACCUACUACCUCA  pre-steady-state target cleavage rate               =         0.0546
22            GGAGACCUAUCUAUACAACCUACUACCAGA  pre-steady-state target cleavage rate               =        0.00327
23           GGAGACCAAUACUAUACAACCUACUACCUCA  pre-steady-state target cleavage rate               =            0.5
24            GGAGUGGAUACUAUGCAACCUACUACCUCA  pre-steady-state target cleavage rate               =           0.09
25            GGAGUGGUUACUAUUCAACCUACUACCUCA  pre-steady-state target cleavage rate               =        0.00293
26            GGAGAGGAUACUAUACAACCUACUGCCUCA  pre-steady-state target cleavage rate               =        0.00919
27  GGAGAGGAUACUAUACAACCUACUACCUCA [g2:g25:cont:t1A]  pre-steady-state target cleavage rate               =         0.0912
28            GGAGUGGAUACUAUACAACCAACUAGCUCA  pre-steady-state target cleavage rate               =        0.00337
29            GGAGAGGAUACUAUACAAUCUACUACCUCA  pre-steady-state target cleavage rate               =         0.0116
30            GGAGUGGAUACUAUAUAACCUACUACCUCA  pre-steady-state target cleavage rate               =          0.117
31            GGAGACCUUACUAUACAACCUACUACCCCA  pre-steady-state target cleavage rate               =        0.00566
32            GGAGACGAAACUAUACAACCAACUACCUCA  pre-steady-state target cleavage rate               =         0.0068
33            GGAGACGAUACUUUACAACCUACUUCCUCA  pre-steady-state target cleavage rate               =        0.00221
34            GGAGACGAAACUAUACAACCUACAACCUCA  pre-steady-state target cleavage rate               =        0.00368
35             GGAGUGGAUACUAUACAACCUACUCCUCA  pre-steady-state target cleavage rate               =        0.00475
36           GGAGACCUUACUAUACAACCUACUACCGUCA  pre-steady-state target cleavage rate               =         0.0112
37            GGAGACCAUACAUUACAACCUACUACCUCA  pre-steady-state target cleavage rate               =         0.0108
38           GGAGACCUUACUAUACAAGCCUACUACCUCA  pre-steady-state target cleavage rate               =        0.00541
39            GGAGUGGAAACUAUACAUCCUACUACCUCA  pre-steady-state target cleavage rate               =         0.0101
40            GGAGGGGAUACUAUACAACCUACUACCUCA  pre-steady-state target cleavage rate               =          0.209
41            GGAGAGGAUACUAUACAACCUAGUACCUGA  pre-steady-state target cleavage rate               =        0.00379
42            GGAGACGAUACUAUACAACCUAAUACCUCA  pre-steady-state target cleavage rate               =        0.00553
43             GGAGAGGAUACUAUACAACCUACACCUCA  pre-steady-state target cleavage rate               =        0.00361
44            GGAGAGGAUAGUAUACAACCAACUACCUCA  pre-steady-state target cleavage rate               =        0.00242
45             GGAGAGGAUACUAUACAACCUACUACCCA  pre-steady-state target cleavage rate               =         0.0052
46            GGAGACGAUACUAAACAACGUACUACCUCA  pre-steady-state target cleavage rate               =        0.00192
47            GGAGUGGAUACUAUACAACCUUGUACCUCA  pre-steady-state target cleavage rate               =        0.00568
48            GGAGACCUAUGAUAUGUACCUAUUACCUCA  pre-steady-state target cleavage rate               <         0.0001
49           GGAGACGAAUACUAUACAACCUACUACCUCA  pre-steady-state target cleavage rate               =         0.0529
50            GGAGUGGAUUCUAUACAACCUACUACGUCA  pre-steady-state target cleavage rate               =         0.0027
51            GGAGAGGAUACGAUACAACCUACUACCUCA  pre-steady-state target cleavage rate               =        0.00899
52            GGAGACGAUACUAUACAAUCUACUACCUCA  pre-steady-state target cleavage rate               =        0.00912
53  GGAGAGGAUACUAUACAACCUACUACCUCC [g2:g25:cont:t1C]  pre-steady-state target cleavage rate               =           0.12
54            GGAGACCAUUCUUUACAACCUACUACCUCA  pre-steady-state target cleavage rate               =         0.0111
